Source: a melting point compilation (Tetko et al.; mined from patent text by program, amines drawn as free bases though some values may be those of a salt)

Measured melting point by item

Worked set:
O=C(O)CC(C1CCCCC1)C1CCCCC1 :: 118 to 120 °C
CC(C)(C)c1cc(C2=NNC(=O)CC2)cc(C(C)(C)C)c1O :: 200 to 203 °C
CCN1CCCc2cc(C=C3SC(=O)NC3=O)ccc21 :: 238 to 241 °C
Cc1nc2c(C#N)ncn2c(Cl)c1-c1c(F)cc(F)cc1F :: 183 °C
COc1ccc(-c2nnn(-c3ccc(C(F)(F)F)cc3F)c2C)cc1 :: 154 to 155 °C
COC(=O)c1cc(C#CC(C)(C)O)cnc1C1=NC(C)(C(C)C)C(=O)N1 (stereo not drawn) :: 142 to 145 °C

Task item: Using the record for "COC(=O)CCc1cn(Cc2ccc(O)cc2)nc1-c1ccccc1" , report its melting point.
Reply: 87 to 88 °C

Task item: Sample "CC(C)N(C(=O)COc1ccc(-c2ccc(C(=O)O)cc2C(F)(F)F)cc1)C(C)C" — what was its melting point?
Reply: 132 to 134 °C

Task item: Form field: reported melting point of "CCNc1nc(SC)ncc1C=Nc1cc(OC)cc(OC)c1Cl"
Reply: 196 to 198 °C

Task item: State the recorded melting point for this entry: C=CCN1CC(c2ccc(NC(=O)OCc3ccccc3)cc2F)CCS1(=O)=O (stereo not drawn)
Reply: 138 to 140 °C

Task item: # lookup: melting point of "c1ccc2c(c1)ccn2Cc1ccncc1"
Reply: 65 to 68 °C

Task item: GET /values?readout=melting point&item= "COc1ccc(-c2nc3cnccc3[nH]2)c(OC(C)C)c1"
Reply: 220 °C

Task item: Look up melting point for this molecule: "Cn1c(S(=O)(=O)c2ccc(C(=O)OCC(C)(C)C)c(Cl)c2)n[nH]c1=O"
Reply: 177 °C

Task item: melting point for "C=C(c1ccccc1)[C@@H](C)[C@H](NC(=O)C(F)(F)F)C(=O)O" ?
Reply: 108 °C

Task item: Fill in: melting point of "CCCCc1nc(Cl)c(CO)n1Cc1ccc(N)cc1" is ___
Reply: 101 to 103 °C

Task item: Which melting point value belongs to "COC(=O)c1cccc(CCC(=O)O)c1" ?
Reply: 81 °C

----------
reported_property: melting point

Before answering, review these 3 worked examples.
CCc1ncc(CCCOc2ccc(-c3nnn(C)n3)cc2)n1C :: 115 to 117 °C
Nc1c(Br)cc(-c2nc3ccccc3s2)cc1Br :: 201 to 203 °C
c1nc(CSCCc2ccc3c(c2)OCO3)c[nH]1 :: 81 to 83 °C

Task item: # melting point lookup, item "CCCC(=O)Nc1n[nH]c2c(F)c(C(F)(F)F)ccc12"
Reply: 220 to 222 °C

----------
// reported melting point per item

Below are worked cases with known answers.
O=C(O)c1cc(-n2c(-c3ccccc3)cc3c2CCc2cc(Cl)ccc2-3)ccc1O :: 249 to 251 °C
CC(=O)ONC(=N)c1ccc(-c2ccc(-c3ccc(C(=N)NOC(C)=O)nc3)o2)cc1 :: 266 to 268 °C

Could you now consider this next compound?
Task item: Name the recorded melting point for "COCc1nc2c(N)nc3ccccc3c2s1" .
Reply: 183 to 185 °C

----------
compounds and their reported melting point

Some solved entries appear below for comparison.
CC(C)(C)c1ccc(OCC(=O)N2Cc3ccc(C(=O)NCc4cccnc4)n3Cc3ccccc32)cc1 :: 85 °C
CC1(C)CC(=O)C(Cl)(Cl)C(Cl)C1Br (centres undefined) :: 117 °C
FC(F)(F)Oc1ccc(-n2cc(Br)cn2)cc1 :: 63 to 65 °C
CCOC(=O)C(NC(=O)C[N+](=O)[O-])C(=O)OCC :: 118 to 121 °C
Cc1ccc(F)cc1C(=O)Nc1ccc(C(=O)N2CCC=Cc3sccc32)c(Cl)c1 :: 125 to 132 °C

Would you kindly look at the next entry?
Task item: What measured melting point goes with "Oc1cccc(-c2noc3ccsc23)c1" ?
Reply: 114 to 116 °C
